- MEASURED_TARGET: T1, human CD81 on CD81-expressing cells (Jurkat E6.1, human PBMC, Ramos) (human, UniProt P60033 1-236)
- T1 sequence: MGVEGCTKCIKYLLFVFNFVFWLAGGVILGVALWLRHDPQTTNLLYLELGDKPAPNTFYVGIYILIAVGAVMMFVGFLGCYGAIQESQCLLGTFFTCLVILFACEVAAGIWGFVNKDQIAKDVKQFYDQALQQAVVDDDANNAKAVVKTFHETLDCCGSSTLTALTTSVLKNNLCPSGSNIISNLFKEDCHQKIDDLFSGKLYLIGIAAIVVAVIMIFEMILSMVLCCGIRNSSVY
- TEST_DESCRIPTION: cell-based or functional assay
ASSAY_METRIC: Jurkat chemotaxis (% of control IgG4) at 1 µg/mL (%)
Answer in %, number only, no unit symbol.

Please review the following examples before continuing.
>>> val("002-F07 (antibody, human IgG4 S228P, lambda, V domains shown, IgG4 S228P) VH: EVQLLESGGGLVQPGGSLRLSCAASGFTFSSNYMSWVRQAPGKGLEWVSYISSSSTYTDYADSVKGRFTISRDNSKNTLYLQMNSLRAEDTAVYYCARYSYGRDSFDYWGQGTLVTVSS VL: QSVLTQPFSASGTPGQRVTISCTGSTSNIGAGFDTHWYQQLPGTAPKLLIYGNSNRPSGVPDRFSGSKSGTTASLAISGLRSEDEADYYCQSYDTNLSVWVFGGGTKLTVLG")
13
>>> val("002-A07 S115N (antibody, human IgG4 S228P, lambda, V domains shown, IgG4 S228P; glycosylation site mutant of 002-A07 VL) VH: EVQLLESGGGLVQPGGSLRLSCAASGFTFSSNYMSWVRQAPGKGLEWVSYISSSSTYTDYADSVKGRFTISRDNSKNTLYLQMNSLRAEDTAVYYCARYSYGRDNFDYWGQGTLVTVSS VL: QSVLTQPPSASGTPGQRVTISCTGSTSNIGAGYDTHWYQQLPGTAPKLLIYGNSNRPSGVPDRFSGSKSGTSASLAISGLRSEDEADYYCQSYDTNLNVWVFGGGTKLTVLG")
-11

Field: next binder
Give me measured Jurkat chemotaxis (% of control IgG4) at 1 µg/mL, please, for this binder: 002-A07 N113S (antibody, human IgG4 S228P, lambda, V domains shown, IgG4 S228P; glycosylation site mutant of 002-A07 VL) VH: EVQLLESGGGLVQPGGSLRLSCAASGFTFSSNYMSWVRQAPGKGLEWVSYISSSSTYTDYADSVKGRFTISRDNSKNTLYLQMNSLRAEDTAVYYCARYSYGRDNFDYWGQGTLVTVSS VL: QSVLTQPPSASGTPGQRVTISCTGSTSNIGAGYDTHWYQQLPGTAPKLLIYGNSNRPSGVPDRFSGSKSGTSASLAISGLRSEDEADYYCQSYDTSLSVWVFGGGTKLTVLG
13

Reference source for all entries: patent US20150139990A1
